This collection of values is drawn from PubChem BioAssay (NCI).

# Tested on: KM12 colon
# measurement description: NCI-60 one-dose screen, 48 h
# measurement context: 10 µM unless noted
Compounds without any hit were thinned out: in the full panel of roughly 83,000, 20% have a hit. The source made the active and inactive calls. Rule for the calls: active = growth percent below 10; inactive = the rest.
// one of active, inactive, no free text

O=C1c2cc3c(cc2-c2c1c1cc(F)c(F)cc1c(=O)n2C[C@H](O)CO)OCO3; active

Identify the outcome logged in this assay for the compound shown: C=CC[N+]1(CC)CCN=C1CCCCCCCCCCCCCCCCC (stereo not given)
active

Name the outcome recorded for COc1cc(/C=C2\CN(C(=O)CCN3CCC(=NO)CC3)C/C(=C\c3cc(OC)c(OC)c(OC)c3)C2=O)cc(OC)c1OC in the assay.
active

What classification did Cc1ccc2c(c1)C(=O)c1c-2c(OCCCN(C)C)nc2ccccc12 end up with in this test?
active

Any idea what this test logged for Nc1nc2c(c3ncccc13)C(c1cccc(Br)c1)Cc1ncccc1-2 (stereo not given) ?
inactive

Lab log entry: C=C(C[n+]1ccccc1)[C@@H]1CC[C@]2(C(=O)OC)CC[C@]3(C)[C@H](CC[C@@H]4[C@@]5(C)CC[C@H](O)C(C)(C)[C@@H]5CC[C@]43C)[C@@H]12 — outcome as called in the assay?
inactive
